All figures here come from patent US6573293B2.

Here we list compounds with their recorded pIC50 when tested on PDGFR-β (Homo sapiens, UniProt P09619).
Sequence (P09619 33-1106): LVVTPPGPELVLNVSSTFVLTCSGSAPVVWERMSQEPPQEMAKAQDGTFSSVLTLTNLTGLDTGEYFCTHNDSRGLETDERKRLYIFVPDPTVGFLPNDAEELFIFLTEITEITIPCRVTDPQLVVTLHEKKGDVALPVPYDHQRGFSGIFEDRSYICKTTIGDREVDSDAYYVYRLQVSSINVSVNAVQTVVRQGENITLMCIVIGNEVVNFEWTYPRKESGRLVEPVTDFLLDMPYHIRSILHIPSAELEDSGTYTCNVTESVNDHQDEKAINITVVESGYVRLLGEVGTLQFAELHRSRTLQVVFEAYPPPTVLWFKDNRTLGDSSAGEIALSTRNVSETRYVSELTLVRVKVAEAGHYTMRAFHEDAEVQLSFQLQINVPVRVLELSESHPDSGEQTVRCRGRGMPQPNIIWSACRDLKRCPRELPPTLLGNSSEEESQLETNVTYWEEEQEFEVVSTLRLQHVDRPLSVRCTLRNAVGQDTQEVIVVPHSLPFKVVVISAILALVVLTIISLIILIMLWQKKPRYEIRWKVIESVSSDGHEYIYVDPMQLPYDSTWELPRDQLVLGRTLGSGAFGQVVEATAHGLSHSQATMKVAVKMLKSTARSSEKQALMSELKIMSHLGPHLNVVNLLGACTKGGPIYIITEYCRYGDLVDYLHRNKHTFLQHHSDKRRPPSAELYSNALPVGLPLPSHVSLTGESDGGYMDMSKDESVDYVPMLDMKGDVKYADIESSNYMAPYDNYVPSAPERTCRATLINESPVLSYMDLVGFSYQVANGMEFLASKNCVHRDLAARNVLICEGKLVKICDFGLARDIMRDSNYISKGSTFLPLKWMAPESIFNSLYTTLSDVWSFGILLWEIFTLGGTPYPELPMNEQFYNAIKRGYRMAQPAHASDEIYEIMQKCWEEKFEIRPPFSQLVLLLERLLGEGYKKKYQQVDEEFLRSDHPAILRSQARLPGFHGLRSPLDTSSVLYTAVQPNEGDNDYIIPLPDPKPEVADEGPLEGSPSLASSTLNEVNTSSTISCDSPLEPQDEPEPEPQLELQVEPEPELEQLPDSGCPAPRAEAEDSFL
Please note pIC50 is a logarithmic value: minus log10 of concentration in mol/L. Answer with that number alone.

Example entries begin here.
> print(dat)
                  compound.structure.string                                     tgt  numeric.result
1  CCN(CC)CCCNC(=O)c1c(C)[nH]c(/C=C2\C(=O)Nc3ccc(Br)cc32)c1-c1ccccc1  PDGFR-β (Homo sapiens, UniProt P09619)            7.22
2  CCN(CC)CCCNC(=O)c1[nH]c(/C=C2\C(=O)Nc3ccc(Br)cc32)cc1C  PDGFR-β (Homo sapiens, UniProt P09619)            4.09
3  CCN(CC)CCCNC(=O)c1c(C)[nH]c(/C=C2\C(=O)Nc3cccc(C(=O)Nc4ccc(OC)c(Cl)c4)c32)c1C  PDGFR-β (Homo sapiens, UniProt P09619)            4.25

// next entry
Query :: Recorded pIC50 of `Cc1[nH]c(/C=C2\C(=O)Nc3ccc(-c4ccccc4)cc32)c(C)c1C(=O)NCCCn1ccnc1` , please.
Result :: 4.67

====

Each entry below lists one item and its recorded IC50 value.
target: GST-Flk1 (Mus musculus, UniProt P35918); construct: GST-Flk1cd purified from sf9 recombinant baculovirus transformation; test: GST-FLK-1 bioassay (bio flkGST)
Sequence (P35918 784-1345 limits assumed): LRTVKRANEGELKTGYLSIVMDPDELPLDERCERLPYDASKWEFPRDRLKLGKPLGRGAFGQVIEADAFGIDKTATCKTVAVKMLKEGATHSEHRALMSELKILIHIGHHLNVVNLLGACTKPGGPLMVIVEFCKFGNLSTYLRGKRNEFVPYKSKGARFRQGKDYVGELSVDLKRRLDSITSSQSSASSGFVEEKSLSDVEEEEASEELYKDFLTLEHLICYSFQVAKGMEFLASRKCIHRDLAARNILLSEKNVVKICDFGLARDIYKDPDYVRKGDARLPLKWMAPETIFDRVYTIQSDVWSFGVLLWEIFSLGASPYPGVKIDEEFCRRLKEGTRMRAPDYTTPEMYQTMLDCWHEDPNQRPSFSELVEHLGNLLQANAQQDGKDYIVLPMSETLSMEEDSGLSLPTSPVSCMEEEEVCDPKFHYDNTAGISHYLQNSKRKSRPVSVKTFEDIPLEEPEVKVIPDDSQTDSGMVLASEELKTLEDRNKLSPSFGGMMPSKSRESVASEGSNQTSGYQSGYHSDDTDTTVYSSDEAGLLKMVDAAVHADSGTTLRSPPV
Write the number in µM without appending the unit.

> print(dat)
                                   compound  numeric.result
1  CCN(CC)CCNC(=O)c1c(C(C)C)[nH]c(/C=C2\C(=O)Nc3ccc(Br)cc32)c1C(C)C [Example 71]            15.2
2  CCN(CC)CCN(C)C(=O)c1ccc(/C=C2\C(=O)Nc3ccc(Br)cc32)[nH]1 [Example 10]            5.72

Query :: Recorded IC50 of O=C1Nc2ccc(Br)cc2/C1=C/c1[nH]c(C(=O)NCCCN2CCCC2)c2c1CCCC2 [Example 19] , please.
Result :: 7.5

====

biological target: GST-Flk1 (Mus musculus, UniProt P35918); construct: GST-Flk1cd purified from sf9 recombinant baculovirus transformation; assay: GST-FLK-1 bioassay (bio flkGST)
PROPERTY: IC50 (nM)
Write the number in nM without appending the unit.

Example entries begin here.
> print(dat)
                                   compound                                      tgt  property  numeric.result
1  CCN(CC)CCNC(=O)c1c(C)[nH]c(/C=C2\C(=O)Nc3ccc(S(=O)(=O)Nc4cccc(Cl)c4)cc32)c1C [Example 88]  GST-Flk1 (Mus musculus, UniProt P35918)      IC50             350
2  CCN(CC)CCCNC(=O)c1[nH]c(/C=C2\C(=O)Nc3ccc(Br)cc32)c(C(C)=O)c1C [Example 29]  GST-Flk1 (Mus musculus, UniProt P35918)      IC50           10100
3  Cc1[nH]c(/C=C2\C(=O)Nc3cc(-c4cccnc4)ccc32)c(C)c1C(=O)NCCN1CCCC1 [Example 64]  GST-Flk1 (Mus musculus, UniProt P35918)      IC50             550

Query :: Recorded IC50 of Cc1[nH]c(/C=C2\C(=O)Nc3ccc(-c4ccccc4)cc32)c(C)c1C(=O)NCCN1CCCC1 [Example 57] , please.
Result :: 60

Query :: Recorded IC50 of COc1ccccc1-c1ccc2c(c1)NC(=O)/C2=C\c1[nH]c(C)c(C(=O)NCCN2CCCC2)c1-c1ccccc1 [Example 43] , please.
Result :: 1120

====

Each entry below lists one item and its recorded IC50 value.
molecular target: GST-Flk1 (Mus musculus, UniProt P35918); construct: GST-Flk1cd purified from sf9 recombinant baculovirus transformation; experiment: GST-FLK-1 bioassay (bio flkGST)
Write the number in µM without appending the unit.

Example entries begin here.
> print(dat)
                                   compound  numeric.result
1  CCN(CC)CCCNC(=O)c1cc(C)c(/C=C2\C(=O)Nc3ccc(Br)cc32)[nH]1 [Example 7]            7.74
2  CCN(CC)CCNC(=O)c1[nH]c(/C=C2\C(=O)Nc3cc(-c4cccnc4)ccc32)c2c1CCCC2 [Example 20]            11.5
3  Cc1[nH]c(/C=C2\C(=O)Nc3ccc(S(=O)(=O)Nc4ccccc4)cc32)c(C)c1C(=O)N1CCN(C)CC1 [Example 86]            1.45
4  CC(=O)c1c(/C=C2\C(=O)Nc3ccc(Br)cc32)[nH]c(C(=O)NCCCN2CCCC2)c1C [Example 30]             9.4
5  Cc1[nH]c(/C=C2\C(=O)Nc3ccc(S(=O)(=O)Nc4cccc(Cl)c4)cc32)c(C)c1C(=O)NCCN1CCCC1 [Example 83]            0.34

Query :: Hi! What's the reported IC50 for CCN(CC)CCN(C)C(=O)c1ccc(/C=C2\C(=O)Nc3cc(-c4ccccc4)ccc32)[nH]1 [Example 11] on GST-Flk1 (Mus musculus, UniProt P35918)?
Result :: 9.77

Query :: Hi! What's the reported IC50 for CC(=O)c1c(/C=C2\C(=O)Nc3ccc(Br)cc32)[nH]c(C(=O)NCCCO)c1C [Example 32] on GST-Flk1 (Mus musculus, UniProt P35918)?
Result :: 45.7

Query :: Hi! What's the reported IC50 for CCOC(=O)c1cc(C)c(/C=C2\C(=O)Nc3ccc(Cl)cc32)[nH]1 [Example 4] on GST-Flk1 (Mus musculus, UniProt P35918)?
Result :: 3.57

====

target: EGFR (Homo sapiens, UniProt P00533); construct: A431 cell lysate (SUGEN, Inc.); host or cells: A431; assay: cell EGF assay; type: cell-based
Sequence (P00533 25-1210): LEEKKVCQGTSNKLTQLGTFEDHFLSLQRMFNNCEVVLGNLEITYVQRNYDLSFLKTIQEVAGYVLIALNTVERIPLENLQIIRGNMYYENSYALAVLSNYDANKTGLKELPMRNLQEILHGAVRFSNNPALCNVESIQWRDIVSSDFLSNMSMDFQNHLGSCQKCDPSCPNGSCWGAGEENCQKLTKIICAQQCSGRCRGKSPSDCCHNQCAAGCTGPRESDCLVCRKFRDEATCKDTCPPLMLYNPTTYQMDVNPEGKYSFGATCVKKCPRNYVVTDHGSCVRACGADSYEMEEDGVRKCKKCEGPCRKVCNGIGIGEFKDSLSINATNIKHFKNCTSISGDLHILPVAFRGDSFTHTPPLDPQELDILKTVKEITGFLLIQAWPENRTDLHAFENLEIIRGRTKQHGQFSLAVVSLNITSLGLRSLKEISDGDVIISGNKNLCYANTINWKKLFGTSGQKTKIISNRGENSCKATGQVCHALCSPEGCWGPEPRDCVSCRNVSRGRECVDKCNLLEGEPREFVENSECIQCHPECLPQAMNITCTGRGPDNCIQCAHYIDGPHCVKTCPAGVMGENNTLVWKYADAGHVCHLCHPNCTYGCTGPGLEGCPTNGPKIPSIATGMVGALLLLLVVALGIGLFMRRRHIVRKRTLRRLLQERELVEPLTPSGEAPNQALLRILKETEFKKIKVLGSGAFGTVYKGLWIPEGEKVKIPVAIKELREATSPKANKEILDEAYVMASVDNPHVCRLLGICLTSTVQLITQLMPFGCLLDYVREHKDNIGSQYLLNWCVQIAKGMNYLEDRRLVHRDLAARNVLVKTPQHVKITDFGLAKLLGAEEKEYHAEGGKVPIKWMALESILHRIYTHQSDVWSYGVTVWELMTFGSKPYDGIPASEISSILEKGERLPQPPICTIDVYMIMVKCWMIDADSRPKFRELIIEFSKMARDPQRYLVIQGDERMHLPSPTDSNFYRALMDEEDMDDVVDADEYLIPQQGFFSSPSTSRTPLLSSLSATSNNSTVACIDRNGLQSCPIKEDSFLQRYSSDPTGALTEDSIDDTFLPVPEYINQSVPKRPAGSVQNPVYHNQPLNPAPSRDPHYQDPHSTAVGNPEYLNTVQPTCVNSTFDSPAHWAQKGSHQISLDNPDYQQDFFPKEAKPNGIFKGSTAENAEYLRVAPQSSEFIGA
Each entry below lists one item and its recorded IC50 value.
Write the number in µM without appending the unit.

Example entries begin here.
> print(dat)
                  compound.structure.string  unit  numeric.result
1  CCN(CC)CCCNC(=O)c1[nH]c(/C=C2\C(=O)Nc3ccc(Br)cc32)c2c1CCCC2    µM            9.23
2  CCN(CC)CCCNC(=O)c1c(C)[nH]c(/C=C2\C(=O)Nc3cccc(C(=O)Nc4ccc(OC)c(Cl)c4)c32)c1C    µM            97.5
3  CCN(CC)CCCNC(=O)c1c(C)[nH]c(/C=C2\C(=O)Nc3ccc(-c4ccccc4)cc32)c1C    µM            19.8

// next entry
Query :: Recorded IC50 of `Cc1[nH]c(/C=C2\C(=O)Nc3ccc(Br)cc32)c(C)c1C(=O)NCCN(C)C` , please.
Result :: 21.6

====

Each entry below lists one item and its recorded log10 IC50 value.
molecular target: PDGFR-β (Homo sapiens)
Remember, log10 of IC50, in µM.

> print(dat)
                  compound.structure.string    property  numeric.result
1  COc1ccc2c(c1)NC(=O)/C2=C\c1[nH]c(C(=O)NCCCN2CCCC2)c(C)c1C(=O)c1ccccc1  log10 IC50            1.83

// next entry
Query :: Hi! What's the reported log10 IC50 for `CCN(CC)CCNC(=O)c1c(C)[nH]c(/C=C2\C(=O)Nc3ccc(S(=O)(=O)Nc4cccc(Cl)c4)cc32)c1C` on PDGFR-β (Homo sapiens)?
Result :: 0.91

====

biological target: EGFR (Homo sapiens, UniProt P00533); construct: A431 cell lysate (SUGEN, Inc.); host or cells: A431; assay: EGFR bioassay (bio EGF); assay type: biochemical
Each entry below lists one item and its recorded IC50 value.
Write the number in µM without appending the unit.

Example entries begin here.
> print(dat)
                                   compound  property  numeric.result
1  CC(C)c1[nH]c(/C=C2\C(=O)Nc3ccc(Br)cc32)c(-c2ccccc2)c1C(=O)NCCCN1CCCC1 [Example 38]      IC50            6.04
2  CCN(CC)CCCNC(=O)c1[nH]c(/C=C2\C(=O)Nc3ccc(Br)cc32)cc1C [Example 13]      IC50            8.17
3  COc1ccc2c(c1)/C(=C/c1[nH]c(C(=O)NCCCN3CCCC3)c(C)c1C(=O)c1ccccc1)C(=O)N2 [Example 27]      IC50            26.5

// next entry
Query :: Recorded IC50 of Cc1c(C(=O)NCCCN2CCCC2)[nH]c(/C=C2\C(=O)Nc3cc(-c4ccccc4)ccc32)c1C(=O)c1ccccc1 [Example 25] , please.
Result :: 23.5
